assay: Stability stress testing (ambient light, 40° C./75% RH, 80° C., 7 days; XRPD and HPLC purity); type: physicochemical; conditions: summary in Table 17
endpoint: Chemical Stability

Below: 7 compounds and their reported Chemical Stability.
- C=CC(=O)Nc1cc(Nc2ncc(C(=O)OC(C)C)c(-c3cn(C)c4ccccc34)n2)c(OC)cc1N(C)CCN(C)C.O=C(O)/C=C/C(=O)O [Fumarate]: Stable
- C=CC(=O)Nc1cc(Nc2ncc(C(=O)OC(C)C)c(-c3cn(C)c4ccccc34)n2)c(OC)cc1N(C)CCN(C)C.CS(=O)(=O)O [Mesylate]: Stable
- C=CC(=O)Nc1cc(Nc2ncc(C(=O)OC(C)C)c(-c3cn(C)c4ccccc34)n2)c(OC)cc1N(C)CCN(C)C.Cc1ccc(S(=O)(=O)O)cc1 [Tosylate]: Stable
- C=CC(=O)Nc1cc(Nc2ncc(C(=O)OC(C)C)c(-c3cn(C)c4ccccc34)n2)c(OC)cc1N(C)CCN(C)C.Cl [HCl]: Degradation
- C=CC(=O)Nc1cc(Nc2ncc(C(=O)OC(C)C)c(-c3cn(C)c4ccccc34)n2)c(OC)cc1N(C)CCN(C)C.O=C(O)C(=O)O [Oxalate]: Stable
- C=CC(=O)Nc1cc(Nc2ncc(C(=O)OC(C)C)c(-c3cn(C)c4ccccc34)n2)c(OC)cc1N(C)CCN(C)C.O=S(=O)(O)O [Sulfate]: Degradation
- Br.C=CC(=O)Nc1cc(Nc2ncc(C(=O)OC(C)C)c(-c3cn(C)c4ccccc34)n2)c(OC)cc1N(C)CCN(C)C [HBr]: Stable

Kindly consider the entry below.
Request: Requested read-out: Chemical Stability. Entry: C=CC(=O)Nc1cc(Nc2ncc(C(=O)OC(C)C)c(-c3cn(C)c4ccccc34)n2)c(OC)cc1N(C)CCN(C)C [Succinate]
Result: Stable

###

experiment: Vapour sorption analysis (GVS, hygroscopicity); assay type: physicochemical; settings: % uptake at 90% RH
Below, each entry is listed alongside its reported GVS (Hygroscopicity).

Request: Requested read-out: GVS (Hygroscopicity). Entry: C=CC(=O)Nc1cc(Nc2ncc(C(=O)OC(C)C)c(-c3cn(C)c4ccccc34)n2)c(OC)cc1N(C)CCN(C)C.O=C(O)C(=O)O [Oxalate]
Result: 2.0%

Request: Record: C=CC(=O)Nc1cc(Nc2ncc(C(=O)OC(C)C)c(-c3cn(C)c4ccccc34)n2)c(OC)cc1N(C)CCN(C)C.Cc1ccc(S(=O)(=O)O)cc1 [Tosylate]
Result: 1.4%

Request: Record: `Br.C=CC(=O)Nc1cc(Nc2ncc(C(=O)OC(C)C)c(-c3cn(C)c4ccccc34)n2)c(OC)cc1N(C)CCN(C)C`
Result: 0.6%

###

test: Clinical pharmacokinetics in NSCLC patients, oral once daily; format: in vivo, human; conditions: human, plasma, po, NSCLC patients, daily oral doses 5-120 mg, first results; read-out: effective t1/2 (converted)
endpoint: half-life

Request: Requested read-out: half-life. Entry: `C=CC(=O)Nc1cc(Nc2ncc(C(=O)OC(C)C)c(-c3cn(C)c4ccccc34)n2)c(OC)cc1N(C)CCN(C)C`
Result: ~960 min

###

Assay: Stability stress testing (ambient light, 40° C./75% RH, 80° C., 7 days; XRPD and HPLC purity)
Type: physicochemical
Settings: HPLC purity after 7 days, open vial, ambient light, room temperature
Experimental: Approximately 5 mg of the appropriate samples were placed into 2 mL clear glass vials and the vials were all stored open under the conditions of ambient light, 40° C./75% RH, and 80° C. for 7 days, respectively. The ambient light sample was left open on the bench at room temperature. The 80° C. sample was placed open into an 80° C. oven.
endpoint: Purity, Ambient light
Reply with the value as a number alone.

* C=CC(=O)Nc1cc(Nc2ncc(C(=O)OC(C)C)c(-c3cn(C)c4ccccc34)n2)c(OC)cc1N(C)CCN(C)C.O=C(O)/C=C/C(=O)O [Fumarate] | 99.5

Request: Requested read-out: Purity, Ambient light. Entry: C=CC(=O)Nc1cc(Nc2ncc(C(=O)OC(C)C)c(-c3cn(C)c4ccccc34)n2)c(OC)cc1N(C)CCN(C)C.O=S(=O)(O)O [Sulfate]
Result: 98.6

###

Below, each entry is listed alongside its reported Purity, 40° C./75% RH.
assay: Stability stress testing (ambient light, 40° C./75% RH, 80° C., 7 days; XRPD and HPLC purity); assay type: physicochemical; conditions: HPLC purity after 7 days, open vial, 40° C./75% RH
Reply with the value as a number alone.

Below: 2 compounds and their reported Purity, 40° C./75% RH.
* C=CC(=O)Nc1cc(Nc2ncc(C(=O)OC(C)C)c(-c3cn(C)c4ccccc34)n2)c(OC)cc1N(C)CCN(C)C.O=S(=O)(O)O [Sulfate] | 96.2
* Br.C=CC(=O)Nc1cc(Nc2ncc(C(=O)OC(C)C)c(-c3cn(C)c4ccccc34)n2)c(OC)cc1N(C)CCN(C)C | 99.6

Kindly consider the entry below.
Request: Requested read-out: Purity, 40° C./75% RH. Entry: C=CC(=O)Nc1cc(Nc2ncc(C(=O)OC(C)C)c(-c3cn(C)c4ccccc34)n2)c(OC)cc1N(C)CCN(C)C.O=C(O)/C=C/C(=O)O [Fumarate]
Result: 99.5

###

Below, each entry is listed alongside its reported Purity, 40° C./75% RH.
assay: Stability stress testing (ambient light, 40° C./75% RH, 80° C., 7 days; XRPD and HPLC purity); format: physicochemical; conditions: HPLC purity after 7 days, open vial, 40° C./75% RH
Reply with the value as a number alone.

Below: 3 molecules and their reported Purity, 40° C./75% RH.
- C=CC(=O)Nc1cc(Nc2ncc(C(=O)OC(C)C)c(-c3cn(C)c4ccccc34)n2)c(OC)cc1N(C)CCN(C)C.Cc1ccc(S(=O)(=O)O)cc1 [Tosylate]: 99.4
- C=CC(=O)Nc1cc(Nc2ncc(C(=O)OC(C)C)c(-c3cn(C)c4ccccc34)n2)c(OC)cc1N(C)CCN(C)C.O=C(O)C(=O)O [Oxalate]: 99.6
- C=CC(=O)Nc1cc(Nc2ncc(C(=O)OC(C)C)c(-c3cn(C)c4ccccc34)n2)c(OC)cc1N(C)CCN(C)C.CS(=O)(=O)O [Mesylate]: 99.6

Request: Requested read-out: Purity, 40° C./75% RH. Entry: C=CC(=O)Nc1cc(Nc2ncc(C(=O)OC(C)C)c(-c3cn(C)c4ccccc34)n2)c(OC)cc1N(C)CCN(C)C.Cl [HCl]
Result: 74.5

Request: Record: C=CC(=O)Nc1cc(Nc2ncc(C(=O)OC(C)C)c(-c3cn(C)c4ccccc34)n2)c(OC)cc1N(C)CCN(C)C [Free Base]
Result: 99.5

###

test: physchem; conditions: pH 6.97, water, thermodynamic from solid
endpoint: solubility at 24 h (µg/mL)
Field format: number, assumed µg/mL, no unit text.

Request: Requested read-out: solubility at 24 h. Entry: C=CC(=O)Nc1cc(Nc2ncc(C(=O)OC(C)C)c(-c3cn(C)c4ccccc34)n2)c(OC)cc1N(C)CCN(C)C.Cc1ccc(S(=O)(=O)O)cc1 [Tosylate]
Result: 400

###

Below, each entry is listed alongside its reported solubility at 24 h.
assay: Thermodynamic aqueous solubility studies (de-ionized water, 24 h, HPLC concentration, filtrate pH, XRPD of solid); details: de-ionized water, pH 6.97, water, thermodynamic from solid, Solubility in Water, de-ionized water (pH 6.97), slurry shaken at ambient temperature for 24 h, filtrate by HPLC; salts of Compound (A)
Field format: number, assumed µg/mL, no unit text.

* C=CC(=O)Nc1cc(Nc2ncc(C(=O)OC(C)C)c(-c3cn(C)c4ccccc34)n2)c(OC)cc1N(C)CCN(C)C.O=C(O)/C=C/C(=O)O [Fumarate] | 100
* C=CC(=O)Nc1cc(Nc2ncc(C(=O)OC(C)C)c(-c3cn(C)c4ccccc34)n2)c(OC)cc1N(C)CCN(C)C.Cl [HCl] | 5800
* C=CC(=O)Nc1cc(Nc2ncc(C(=O)OC(C)C)c(-c3cn(C)c4ccccc34)n2)c(OC)cc1N(C)CCN(C)C [Succinate] | 1900
* C=CC(=O)Nc1cc(Nc2ncc(C(=O)OC(C)C)c(-c3cn(C)c4ccccc34)n2)c(OC)cc1N(C)CCN(C)C.O=C(O)C(=O)O [Oxalate] | 6800

Kindly consider the entry below.
Request: Requested read-out: solubility at 24 h. Entry: `Br.C=CC(=O)Nc1cc(Nc2ncc(C(=O)OC(C)C)c(-c3cn(C)c4ccccc34)n2)c(OC)cc1N(C)CCN(C)C`
Result: 100

###

Below, each entry is listed alongside its reported Input purity.
assay: Stability stress testing (ambient light, 40° C./75% RH, 80° C., 7 days; XRPD and HPLC purity); format: physicochemical; conditions: HPLC purity before stress storage

• C=CC(=O)Nc1cc(Nc2ncc(C(=O)OC(C)C)c(-c3cn(C)c4ccccc34)n2)c(OC)cc1N(C)CCN(C)C.Cl [HCl] = 99.0

Request: Requested read-out: Input purity. Entry: C=CC(=O)Nc1cc(Nc2ncc(C(=O)OC(C)C)c(-c3cn(C)c4ccccc34)n2)c(OC)cc1N(C)CCN(C)C.O=S(=O)(O)O [Sulfate]
Result: 98.3

Request: Record: C=CC(=O)Nc1cc(Nc2ncc(C(=O)OC(C)C)c(-c3cn(C)c4ccccc34)n2)c(OC)cc1N(C)CCN(C)C.CS(=O)(=O)O [Mesylate]
Result: 99.7
